assay: Antiproliferative activity against human hTERT-BJ cells assessed as reduction in cell growth; format: toxicity, cell-based

Compound: COc1ccc(CCOCCCCCCCCCCCC[P+](c2ccccc2)(c2ccccc2)c2ccccc2)cc1OC
Measurement Units: µM
GI50: 4.3
//
Compound: c1ccc([P+](CCCCCCCCCCCCOCCc2ccc3c(c2)OCO3)(c2ccccc2)c2ccccc2)cc1
Measurement Units: µM
GI50: 4.6
//
Compound: c1ccc(CCOCCCCC[P+](c2ccccc2)(c2ccccc2)c2ccccc2)cc1
Measurement Units: µM
GI50: 32
//
Compound: c1ccc(COc2ccc(CCOCCCCCCCCCCCC[P+](c3ccccc3)(c3ccccc3)c3ccccc3)cc2OCc2ccccc2)cc1
Measurement Units: µM
GI50: 3.5
//
Compound: COc1ccc(CCOCCCCCC[P+](c2ccccc2)(c2ccccc2)c2ccccc2)cc1OC
Measurement Units: µM
GI50: 34
//
Compound: [Br-].c1ccc([P+](CCCCCCOCCc2ccc3c(c2)OCO3)(c2ccccc2)c2ccccc2)cc1
Measurement Units: µM
GI50: 43
//
Compound: c1ccc(COc2ccc(CCOCCCCCC[P+](c3ccccc3)(c3ccccc3)c3ccccc3)cc2OCc2ccccc2)cc1
Measurement Units: µM
GI50: 3.3
//
Compound: c1ccc(CCOCCCCCCCCCCCC[P+](c2ccccc2)(c2ccccc2)c2ccccc2)cc1
Measurement Units: µM
GI50: 4.4
//
Compound: c1ccc(COc2ccc(CCOCCCCC[P+](c3ccccc3)(c3ccccc3)c3ccccc3)cc2OCc2ccccc2)cc1
Measurement Units: µM
GI50: 3.5
//
Compound: c1ccc([P+](CCCCCOCCc2ccc3c(c2)OCO3)(c2ccccc2)c2ccccc2)cc1
Measurement Units: µM
GI50: 37
//
Compound: c1ccc(COc2ccc(CCOCCCCCCCCCCCC[P+](c3ccccc3)(c3ccccc3)c3ccccc3)cc2)cc1
Measurement Units: µM
GI50: 3.3
//
Compound: COc1ccc(CCOCCCCCCCCCCCC[P+](c2ccccc2)(c2ccccc2)c2ccccc2)cc1
Measurement Units: µM
GI50: 3.6
//
Compound: c1ccc(COc2ccc(CCOCCCCCC[P+](c3ccccc3)(c3ccccc3)c3ccccc3)cc2)cc1
Measurement Units: µM
GI50: 3.1
//
Compound: c1ccc(COc2ccc(CCOCCCCC[P+](c3ccccc3)(c3ccccc3)c3ccccc3)cc2)cc1
Measurement Units: µM
GI50: 2.9
//
Compound: COc1ccc(CCOCCCCC[P+](c2ccccc2)(c2ccccc2)c2ccccc2)cc1
Measurement Units: µM
GI50: 28
//
Compound: COc1ccc(CCOCCCCC[P+](c2ccccc2)(c2ccccc2)c2ccccc2)cc1OC
Measurement Units: µM
GI50: 57
//
Compound: O=c1[nH]cc(F)c(=O)[nH]1 [FLUOROURACIL]
Measurement Units: µM
GI50: 5.5
//
Compound: COc1ccc(CCOCCCCCC[P+](c2ccccc2)(c2ccccc2)c2ccccc2)cc1
Measurement Units: µM
GI50: 30
//
Compound: [Br-].c1ccc(CCOCCCCCC[P+](c2ccccc2)(c2ccccc2)c2ccccc2)cc1
Measurement Units: µM
GI50: 35
